Test system: HepAD38 cells
measurementDescription: Cell viability assay (EZ-Cytox), cytotoxicity
Type: cell-based
measurementSetup: 65 hours
endpoint: CC50

(Q) Answer with the recorded CC50 of COc1ncc(N(Cc2n[nH]c(C(F)F)c2Br)C(=O)Nc2ccc(F)c(Cl)c2)cn1 [Example 81] only.
(A) > 100 µM

----------
measurementDescription: Cell viability assay (EZ-Cytox), cytotoxicity
Type: cell-based
measurementSetup: human, HepAD38 cells, @100 μM, read-out: Cytotoxicity % Livability (@100 μM)
In this section, each of the molecules is paired with its reported viability at 65 h, 100 µM.
Reply numerically in %, unit not repeated.

Reference set (2 entries):
INSERT INTO results (molecule, displayunit, measvalue) VALUES
  ('CCOCCc1c(CN(C(=O)Nc2ccc(F)cc2)c2ccc(OC)nc2)n[nH]c1C(F)(F)F', '%', 104),
  ('Cc1cc(N(Cc2n[nH]c3c2CCCO3)C(=O)Nc2ccc(F)c(Cl)c2)no1', '%', 93);

(Q) // Input: "COc1ncc(N(Cc2n[nH]c(C(F)F)c2C(C)(C)O)C(=O)Nc2ccc(F)c(C(F)F)c2)cn1" . Output its viability at 65 h, 100 µM only.
(A) 102

(Q) Give me measured viability at 65 h, 100 µM, please, for this molecule: "COc1cc(N(Cc2cc(C(F)F)[nH]n2)C(=O)Nc2ccc(F)c(Cl)c2)cnn1"
(A) 83.4

(Q) Fill in viability at 65 h, 100 µM for record "O=C(Nc1ccc(F)c(Cl)c1)N(Cc1n[nH]c2c1CCCC2)c1nncs1"
(A) 4.3

(Q) Entry COc1ncc(N(Cc2n[nH]c(C(F)(F)F)c2CC(C)O)C(=O)Nc2ccc(F)c(C(F)F)c2)cn1 (stereo not shown) needs its viability at 65 h, 100 µM filled in; supply it.
(A) 95.7

(Q) Specify reported viability at 65 h, 100 µM for the molecule shown: "COc1cc(N(Cc2cc(C(F)(F)F)[nH]n2)C(=O)Nc2ccc(F)c(Cl)c2)cnc1C#N"
(A) 31.3

(Q) Kindly indicate its recorded viability at 65 h, 100 µM. Item: "COc1ncc(N(Cc2cc(C(F)(F)F)[nH]n2)C(=O)Nc2cc(Cl)c(F)cn2)cn1"
(A) 96

(Q) Give the reported viability at 65 h, 100 µM for this molecule. "COc1cc(N(Cc2n[nH]c3c2COCC3)C(=O)Nc2ccc(F)c(Cl)c2)ccn1"
(A) 96.6

(Q) Write down viability at 65 h, 100 µM measured for item "COc1ccc(N(Cc2n[nH]c3c2CCCC3)C(=O)Nc2ccc(F)c(Cl)c2)cc1OC"
(A) 104

(Q) Give me measured viability at 65 h, 100 µM, please, for this molecule: "COc1ncc(N(Cc2cc(C(F)(F)F)[nH]n2)C(=O)Nc2cncc(C(F)F)c2)cn1"
(A) 96.2

(Q) Note down viability at 65 h, 100 µM recorded for "COc1ncc(N(Cc2n[nH]c(C(F)(F)F)c2C(C)(C)O)C(=O)Nc2ccc(F)c(C(F)F)c2)cn1"
(A) 87.7

(Q) Please supply the value of reported viability at 65 h, 100 µM for the item "COc1ccc(N(Cc2n[nH]c(C(F)(F)F)c2C)C(=O)Nc2ccc(F)c(Cl)c2)cn1"
(A) 94

(Q) Indicate its recorded viability at 65 h, 100 µM; the molecule in question is "COC12CC(N(Cc3cc(C(F)(F)F)[nH]n3)C(=O)Nc3cccc(C(F)F)c3)(C1)C2"
(A) 64.9

(Q) // Input: "COc1ccc(N(Cc2n[nH]c3c2CC(C)(C)CC3)C(=O)Nc2ccc(F)c(Cl)c2)cn1" . Output its viability at 65 h, 100 µM only.
(A) 50.7

(Q) Give viability at 65 h, 100 µM for the following molecule: "COCCc1c(CN(C(=O)Nc2ccc(F)c(Cl)c2)c2ccc(OC)nc2)n[nH]c1C(F)F"
(A) 74.5
